FYI, the data here is from ChEMBL document CHEMBL3507680.

experiment: Human HepG2 cell viability assay in 384 well format; format: toxicity, cell-based; parameters: dose 125 nL, time 70.5 hour; concentration not given beside the values; settings: HepG2 cells, read-out: Inhibition
Reported cytotoxicity at 70.5 h is given for each of the following molecules.
PROPERTY MEASURED: cytotoxicity at 70.5 h (%)

>>> result_value("Cc1ccccc1OC1(C(=O)O)CCN(C(=O)CCc2ccco2)CC1")
-3.93
>>> result_value("Cn1ncc2c(=O)[nH]c(CN3CCCC3c3ccccc3Cl)nc21 (stereo not drawn)")
-8.75
>>> result_value("N#Cc1ccccc1OCCN1CCC(N2CCNC2=O)CC1")
-11.9
>>> result_value("Cc1nn(C)c(C)c1C1CCCN1Cc1nc2ccccc2o1 (stereo not drawn)")
-4.38
>>> result_value("CCn1cnnc1CNC(=O)NC(C)c1cccs1 (stereo not drawn)")
-14.5
>>> result_value("Cc1noc(CN(C)CC2CCN(CCO)CC2)n1")
5
>>> result_value("Cc1cc(C)n(CC2CCCN2C(=O)c2c[nH]c3ncccc23)n1 (stereo not drawn)")
27.2
>>> result_value("Cc1nnc(CN(C)Cc2nc3c(s2)CCCC3)o1")
-5.09
>>> result_value("COc1ccc(N2CCN(CC(O)c3ccc(C)cc3C)CC2)cc1 (stereo not drawn)")
-3.49
>>> result_value("COCCC(=O)N1CCCC1c1nccnc1Nc1ncccn1 (stereo not drawn)")
16.8
>>> result_value("COCCn1ccnc1C1CCCN(c2cc(OC)nc(N)n2)C1 (stereo not drawn)")
31.1
>>> result_value("Fc1ccccc1OCCN1CCCCC1Cn1cncn1 (stereo not drawn)")
2.55
>>> result_value("CCSc1cncc(NCc2ccc(N3CCNC(=O)C3)cc2)n1")
3.68

* * *

experiment: Human HepG2 cell viability assay in 384 well format; format: toxicity, cell-based; parameters: dose 125 nL, time 70.5 hour; concentration not given beside the values; details: HepG2 cells, read-out: Inhibition
PROPERTY MEASURED: cytotoxicity at 70.5 h (%)

>>> result_value("CN1C(=O)CC(C(=O)O)C12CCN(Cc1cc(Cl)ccc1F)CC2 (configuration not stated)")
8.5
>>> result_value("CN(Cc1cccnc1)C1CC2(CCN(c3ncccn3)CC2)C1")
-15.1
>>> result_value("COc1cccc(-c2noc(C3CCN(CC(N)=O)C3)n2)c1 (configuration not stated)")
-4.11
>>> result_value("CN(c1ncccc1CNS(=O)(=O)N1CCOCC1)C1CCCCC1")
18.5
>>> result_value("c1ccc(CCc2n[nH]c(C3CCC3)n2)cc1")
-2.16
>>> result_value("CC(NC(=O)CCc1cccc(OC2CCCC2)c1)c1nncn1C (configuration not stated)")
2.36
>>> result_value("Nc1nc2c(c(N3CCCC(OCc4ccccn4)C3)n1)CCNCC2 (configuration not stated)")
-6.98
>>> result_value("Cc1ccc(N2Cc3cnn(C)c3C(COCC3CC3)C2)nn1 (configuration not stated)")
-4.86
>>> result_value("Cc1nn(C)cc1S(=O)(=O)NCC(C)Cn1cc(Cl)cn1 (configuration not stated)")
3.54
>>> result_value("Cc1n[nH]c(-c2ccc(NC(=O)C(C)N3CCN(C)CC3)cc2)n1 (configuration not stated)")
2.06
>>> result_value("Cc1cc(C)c(C(=O)N2CCCC(O)(CN3CCCC3)C2)cc1C (configuration not stated)")
-4.19
>>> result_value("Cc1cc(Nc2ccccn2)nc(C2CCCN(CCO)C2)n1 (configuration not stated)")
-8.92
>>> result_value("CN(C)c1ncnc2c1CCN(C(=O)c1sccc1S(N)(=O)=O)C2")
-2.96
>>> result_value("O=C(NCCOc1ncc(Cl)cc1Cl)c1cccnc1")
8.03
>>> result_value("c1ccc(N2CCC(NCCc3ccc(-n4cccn4)cc3)CC2)nc1")
21.5
>>> result_value("COc1cccc(C(C)N2CCN(S(C)(=O)=O)CC2)c1 (configuration not stated)")
28.7
>>> result_value("CC(C)C(c1cccnc1)N(C)C(=O)Cc1ccc(O)cc1 (configuration not stated)")
0.393
>>> result_value("O=C(O)CCn1nc(C(F)(F)F)c(Cl)c1C1CC1")
-19.2
>>> result_value("Cc1oc(-c2ccccc2)nc1CN1CCC(c2ccnn2C)CC1")
-78.8
>>> result_value("COc1ccc(C(=O)C2CCCN(c3cc(OC)ncn3)C2)c(C)c1 (configuration not stated)")
10.1
>>> result_value("Cc1noc(CS(=O)(=O)c2cc(F)ccc2F)n1")
-8.49
>>> result_value("CN(C)C(=O)CN1CCCC1c1nccnc1Nc1ccccn1 (configuration not stated)")
-8.51
>>> result_value("OCCCN(CCc1cccc(F)c1)C1CC1")
-4.09
>>> result_value("Cc1ccc(CC(=O)N2CCC(c3nnc4n3CCC4)CC2)cc1")
-8.21
>>> result_value("Cc1cc2nc(SCC(=O)N3CCCC3)n(Cc3ccco3)c(O)c-2n1")
-8.29
>>> result_value("COc1ccc(CN2CCC3(CCN(c4cccnc4)C3=O)C2)cc1 (configuration not stated)")
1.92
>>> result_value("CC(C)CN(Cc1nc2c(cnn2C)c(=O)[nH]1)C(C)C")
-2.34

* * *

assay: Human HepG2 cell viability assay in 384 well format; type: toxicity, cell-based; parameters: dose 125 nL, time 70.5 hour; concentration not given beside the values; conditions: HepG2 cells, read-out: Inhibition
PROPERTY MEASURED: cytotoxicity at 70.5 h (%)

>>> result_value("CC(C)=CCCC(C)CN1CCC(n2cc(C(=O)NCCO)nn2)CC1 (stereo unspecified)")
-4.56
>>> result_value("CCc1ccc(C(=O)N2CCCN(Cc3nccn3CC)CC2)s1")
14
>>> result_value("O=C(NCc1ccccc1)[C@H]1C[C@@H]2CN(S(=O)(=O)C3CC3)C[C@H]1O2")
-10.1
>>> result_value("Cc1nc(N2CCCC2)nc2c1CCN(C(=O)CN(C)C)CC2")
-3.18
>>> result_value("CS(=O)(=O)N1CCC(Oc2ccc(C(=O)N3CCSCC3)cc2Cl)CC1")
0.994
>>> result_value("CCOc1ncccc1CNC(=O)NC1CCOc2ccccc21 (stereo unspecified)")
-4.63

* * *

Listing of entries alongside the reported cytotoxicity at 70.5 h.
test: Human HepG2 cell viability assay in 384 well format; format: toxicity, cell-based; parameters: dose 125 nL, time 70.5 hour; concentration not given beside the values; conditions: HepG2 cells, read-out: Inhibition
PROPERTY MEASURED: cytotoxicity at 70.5 h (%)

>>> result_value("CN1CCCC1(CCCc1cccnc1)C(=O)NCc1nccn1C (stereo not drawn)")
-1.26
>>> result_value("Cc1cnn(CC2CN(Cc3nnc(C(C)C)o3)CCO2)c1 (stereo not drawn)")
-6.07
>>> result_value("Cc1nc(C)n(C2CCCN(C(=O)c3c(C)nn4cccnc34)C2)n1 (stereo not drawn)")
20.7
>>> result_value("CC(C)(C)C(=O)N1C[C@@H]2COC[C@]2(c2nnc(C3CC3)o2)C1")
-8.33
>>> result_value("Cn1cnc2cc(C(=O)NS(=O)(=O)CC3CCCC3)ccc21")
0.122
>>> result_value("CC(C)OCc1noc(C2CCCOC2)n1 (stereo not drawn)")
-10.6
>>> result_value("CC(C)(C)OC(=O)N1CC(CC(=O)NCc2ccsc2)C1")
7.8
>>> result_value("Cc1cc(C)cc(-n2ncc3c2CCCC3N)c1 (stereo not drawn)")
-5.06
>>> result_value("Cc1ccc(O)c(CN(CCCn2ccnc2)Cc2ccc(C)s2)c1")
0.701
>>> result_value("CC(NC(=O)NCCCc1n[nH]c(N)c1C#N)c1ccccc1F (stereo not drawn)")
0.683
>>> result_value("Cc1cc(C)c2cc(C(=O)N3CCN(Cc4ccco4)CC3)[nH]c2c1")
-13.2
>>> result_value("Cn1cccc1C(CNC(=O)c1ccc(F)cc1F)N1CCCCCC1 (stereo not drawn)")
34.1
>>> result_value("O=c1c(NCCO)c(N2CCN(c3ccccc3)CC2)c1=O")
-4.94
>>> result_value("CC(C)S(=O)(=O)N1CCC(c2cc3n(n2)[C@@H](C(F)(F)F)C[C@@H](C)N3)C1 (stereo partly drawn)")
-11
>>> result_value("Cc1ccc(N2CCO[C@H]3[C@H](OCC(=O)N4CCCC4)CC[C@@H]32)cc1")
-1.99
>>> result_value("COC(=O)Cn1c(=O)nc2n1C(=O)N(c1ccccc1)C2")
-8.59
>>> result_value("CC(=O)N1C[C@H](NS(=O)(=O)N2CCCC2)[C@@H](c2ccc(C)o2)C1")
-7.2
>>> result_value("CC(C)C1CN(c2ncccn2)CCC(=O)N1CC1CC1 (stereo not drawn)")
36.1

* * *

// values below are reported cytotoxicity at 70.5 h
assay: Human HepG2 cell viability assay in 384 well format; type: toxicity, cell-based; set-up: dose 125 nL, time 70.5 hour; concentration not given beside the values; conditions: HepG2 cells, read-out: Inhibition
PROPERTY MEASURED: cytotoxicity at 70.5 h (%)

>>> result_value("CCOc1ccc(CCCC(=O)N2CCC(c3nnn[nH]3)CC2)cc1C")
-11.9
>>> result_value("CC(C)CCN(C(=O)c1cccc(NC(N)=O)c1)C1CC1")
-17.2
>>> result_value("CN(C)c1ncc(C2Nc3ccccc3C3=NCCCN32)cn1 (configuration not stated)")
-4.88
>>> result_value("CC(=O)N1CCC2(CC1)[C@@H]1CN(Cc3cccnc3)C[C@@H]1C(=O)N2C")
18.5
>>> result_value("COc1ccc(C(=O)N2C[C@@H](C)[C@@](C)(O)C2)cc1N1CCOCC1")
2.73
>>> result_value("O=C(Cn1ccnc1)N1C[C@@H]2CC[C@H](Oc3ccccc3Cl)[C@@H]2C1")
1.01
>>> result_value("O=c1oc(-c2cccs2)nn1CC(O)c1ccccc1 (configuration not stated)")
-13.3
>>> result_value("Cc1ccc2c(n1)N(Cc1cccnc1)CCN(C(=O)C1CC1)C2")
11.2
>>> result_value("CC(C)NC(=O)[C@@H]1CCO[C@@H]2CCN(c3ncccn3)C[C@H]21")
0.612
>>> result_value("Cc1cc(C)cc(OCCN(C)C2CCOC2=O)c1 (configuration not stated)")
1.42
>>> result_value("CC(C)(C)c1n[nH]cc1CNCC1CCN(CC(F)(F)F)C1 (configuration not stated)")
-6.93
>>> result_value("CC(C)Cn1cnnc1C1CCCN1C(=O)OC(C)(C)C (configuration not stated)")
-0.156
>>> result_value("COCCC(=O)NCC1Cn2nnc(-c3cccc(F)c3)c2CO1 (configuration not stated)")
-0.67
>>> result_value("COc1ccc(C[C@H]2CN(Cc3ccoc3)CC[C@H]2OC)cc1")
-0.279
>>> result_value("O=C(c1ccncc1F)N1CCc2ncnc(-c3ccncc3)c2CC1")
6.15
>>> result_value("OC(COCc1ccc(Cl)cc1)CN1CCC(c2ccn[nH]2)CC1 (configuration not stated)")
-1.37
>>> result_value("CCCc1ccc(S(=O)(=O)NC2(CC(N)=O)CCC2)cc1")
1.66
